Reference for the values: patent US20230374038A1

# assay-target: CFTR (Homo sapiens, UniProt P13569, DEL508-508)
# Construct: endogenous in cells; host or cells: primary human bronchial epithelial cells, F508del/MF genotype
# Sequence (P13569 with tags, fused parts or gaps DEL508-508): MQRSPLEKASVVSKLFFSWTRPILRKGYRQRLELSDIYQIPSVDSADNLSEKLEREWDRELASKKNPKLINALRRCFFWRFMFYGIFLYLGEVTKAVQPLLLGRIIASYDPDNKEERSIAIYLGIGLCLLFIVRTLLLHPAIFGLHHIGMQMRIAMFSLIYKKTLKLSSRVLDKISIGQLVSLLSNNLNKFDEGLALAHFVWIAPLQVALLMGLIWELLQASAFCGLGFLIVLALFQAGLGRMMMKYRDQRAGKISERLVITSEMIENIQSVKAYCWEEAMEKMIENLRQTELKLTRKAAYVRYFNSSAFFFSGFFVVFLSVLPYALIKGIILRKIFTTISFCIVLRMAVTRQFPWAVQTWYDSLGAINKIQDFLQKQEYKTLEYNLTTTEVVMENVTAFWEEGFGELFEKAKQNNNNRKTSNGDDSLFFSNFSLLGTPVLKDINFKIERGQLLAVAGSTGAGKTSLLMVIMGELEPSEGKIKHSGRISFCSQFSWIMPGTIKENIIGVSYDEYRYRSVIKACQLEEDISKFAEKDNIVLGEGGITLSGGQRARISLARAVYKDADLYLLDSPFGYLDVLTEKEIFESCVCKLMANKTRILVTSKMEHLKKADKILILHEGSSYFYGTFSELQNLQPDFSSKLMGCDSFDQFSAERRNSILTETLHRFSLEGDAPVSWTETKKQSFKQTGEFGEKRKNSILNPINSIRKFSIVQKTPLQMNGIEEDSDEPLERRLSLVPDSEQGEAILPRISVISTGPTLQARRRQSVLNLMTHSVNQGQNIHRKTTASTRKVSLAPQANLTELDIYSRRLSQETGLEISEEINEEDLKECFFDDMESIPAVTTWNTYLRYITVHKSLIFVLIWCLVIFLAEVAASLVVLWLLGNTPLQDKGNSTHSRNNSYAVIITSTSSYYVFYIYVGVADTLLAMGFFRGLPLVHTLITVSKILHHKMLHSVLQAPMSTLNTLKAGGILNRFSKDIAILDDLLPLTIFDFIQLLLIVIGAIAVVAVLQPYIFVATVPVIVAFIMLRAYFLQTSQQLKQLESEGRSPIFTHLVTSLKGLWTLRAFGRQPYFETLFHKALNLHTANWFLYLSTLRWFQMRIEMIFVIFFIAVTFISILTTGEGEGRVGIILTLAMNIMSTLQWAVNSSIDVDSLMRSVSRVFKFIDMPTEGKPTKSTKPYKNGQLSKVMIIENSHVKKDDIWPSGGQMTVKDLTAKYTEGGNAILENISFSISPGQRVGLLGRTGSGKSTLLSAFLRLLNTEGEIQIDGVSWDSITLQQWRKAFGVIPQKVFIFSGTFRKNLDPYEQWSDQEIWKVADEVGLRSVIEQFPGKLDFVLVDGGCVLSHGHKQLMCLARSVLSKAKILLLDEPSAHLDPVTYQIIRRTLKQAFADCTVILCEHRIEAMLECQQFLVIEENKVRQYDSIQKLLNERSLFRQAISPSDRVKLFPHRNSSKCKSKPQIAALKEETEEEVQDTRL
# assay: HBE Assay: Ussing chamber assay of CFTR-mediated short-circuit currents in F508del/MF-HBE cells with 1 μM Ivacaftor
# Type: cell-based
# assay-setup: with 1 μM Ivacaftor, 18-24 hours, 20% human serum

# compound, HBE Max Activity
records = [
    ("Cc1cccc(CC2CCCCC2)c1-c1nc2nc(c1C)OC[C@@H](CC(C)(C)C)N(Cc1nccc(N3CCOCC3)n1)C(=O)c1cccc(c1)S(=O)(=O)N2 (atropisomer, axis not shown)", "+++ (+++ is >600%)"),
    ("Cc1cccc(CC2CCCCC2)c1-c1nc2nc(c1C)OC[C@@H](CC(C)(C)C)N(Cc1cccc(N(C)CC(C)(C)C)n1)C(=O)c1cccc(c1)S(=O)(=O)N2 (atropisomer, axis not shown)", "+++ (+++ is >600%)"),
]

###

# assay-target: UniProtKB P13569
# assay: Membrane Potential Dye, Enteroid Assay B
# Assay type: cell-based
# assay-setup: read-out: Ent. B EC50
pEC50: −log10 of the molar value.
pEC50: recorded values

Sample answers from the record:
# compound, measured-result
data = [
    ("Cc1cccc(C)c1-c1nc2nc(c1C)O[C@H](c1ccc(C(C)(C)C)cc1)[C@@H](C)NC(=O)c1cccc(c1)S(=O)(=O)N2", "> 6.00"),
    ("CCc1c2nc(nc1-c1c(C)cccc1C)NS(=O)(=O)c1cccc(c1)C(=O)N(C1CC3(CCN(C)CC3)C1)[C@H](CC(C)C)CO2", "> 6.00"),
    ("Cc1cccc(C)c1-c1nc2nc(c1CCC(C)(C)C)O[C@H](C)CNC(=O)c1cccc(c1)S(=O)(=O)N2", "> 6.00"),
    ("Cc1cccc(C)c1-c1nc2nc(c1C)OC[C@@H](CCC(C)(C)O)N(Cc1ncccn1)C(=O)c1cccc(c1)S(=O)(=O)N2", "4.52 to 5.52"),
]

We next turn to a different compound, shown below.
Task: I would be grateful if you could share the reported pEC50 for COC1CC(N2C(=O)c3cccc(c3)S(=O)(=O)Nc3nc(c(C)c(-c4c(C)cccc4C)n3)OC[C@H]2CC(C)C)C1 (stereo in doubt) [Compound 71] .
Output: > 6.00

###

# assay-target: CFTR (Homo sapiens, UniProt P13569, DEL508-508)
# Construct: endogenous in cells; host or cells: primary human bronchial epithelial cells, F508del/MF genotype
# assay: HBE Assay: Ussing chamber assay of CFTR-mediated short-circuit currents in F508del/MF-HBE cells with 1 μM Ivacaftor
# Format: cell-based
# assay-setup: single fixed concentration of 10 μM, with 1 μM Ivacaftor, 20% human serum
attribute-measured: HBE Activity at 10 μM

# compound, measured-result
measured = [
    ("Cc1cccc(CC(C)C)c1-c1nc2nc(c1C)OC[C@@H](CC(C)C)N(Cc1cnc(C3CCOCC3)cn1)C(=O)c1cccc(c1)S(=O)(=O)N2 (atropisomer, axis not shown)", "+++ (+++ is >600%)"),
    ("Cc1cccc(CC(C)C)c1-c1nc2nc(c1C)OC[C@@H](CC(C)(C)C)NC(=O)c1cccc(c1)S(=O)(=O)N2 (atropisomer, axis not shown) [Compound 227]", "+++ (+++ is >600%)"),
]
